Biological target: KRAS G12C (GMPPNP-loaded) and cRAF (Ras-binding domain) interaction (Homo sapiens (Human), UniProt P01116, C118S/C51S/C80L/G12C)
Sequence (P01116 other isoform, or with tags, fused parts or gaps G12C/C51S/C80L/C118S): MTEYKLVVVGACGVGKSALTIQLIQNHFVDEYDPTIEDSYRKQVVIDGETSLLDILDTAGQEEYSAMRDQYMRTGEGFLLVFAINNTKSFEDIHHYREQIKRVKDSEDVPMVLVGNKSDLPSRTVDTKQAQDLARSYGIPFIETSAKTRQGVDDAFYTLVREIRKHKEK
Experiment: Inhibition of KRAS G12C and cRAF binding (AlphaScreen)
Conditions: KRAS G12C loaded with GMPPNP, cRaf RBD, 2 hours preincubation; read-out: Raf-1 RBD K-Ras IC50
Measured IC50 values are reported for all entries that follow.

Notebook: N#CC[C@H]1CN(c2nc(OC[C@@]34CCCN3C[C@H](F)C4)nc3c(F)c(-c4cccc5ccc(F)c(F)c45)ncc23)CCN1C(=O)/C=C/CN1CCSCC1 , IC50 read as < 10 nM

Input N#CC[C@H]1CN(c2nc(OC[C@@]34CCCN3C[C@H](F)C4)nc3c(F)c(-c4cccc(Cl)c4C4CC4)ncc23)CCN1C(=O)/C=C/[C@H]1CCN1C1CC1 . Output IC50: < 10 nM

----------
Test: Determination of kinetic solubility (pH 7.4)
Format: physicochemical
Details: phosphate buffer, pH 7.4, aqueous buffer, kinetic from dmso stock, 50 mM phosphate buffer pH 7.4, read-out: Ksol, pH 7.4
Procedure: 490 μL of a 50 mM phosphate buffer (pH 7.4) was added to the sample solution. The mixture was vortexed for at least 2 minutes. The vial was shaken on a Barnstead shaker at 800 rpm at room temperature for 2 hours. The vial was centrifuged at 4000 rpm for 20 minutes. The Mini-UniPrep vial was compressed to prepare a filtrate, which was injected into an HPLC-UV and LC-MS/MS system. Kinetic solubility was calculated by referencing sample peak areas to a standard calibration curve.
measure: solubility kinetic at 2 h (µg/mL)

> print(dat)
                              smiles.string  value
1  C[C@H]1CN(C/C=C/C(=O)N2CCN(c3nc(OC[C@@]45CCCN4C[C@H](F)C5)nc4c(F)c(-c5cccc(Cl)c5C5CC5)ncc34)C[C@@H]2CC#N)C[C@H](C)O1    118
2  CN(C)C/C=C/C(=O)N1CCN(c2nc(OC[C@@]34CCCN3C[C@H](F)C4)nc3c(F)c(-c4cccc(Cl)c4C4CC4)ncc23)C[C@@H]1CC#N    114
3  CN(C)C/C=C/C(=O)N1CCN(c2nc(OC[C@@]34CCCN3C[C@H](F)C4)nc3c(F)c(-c4cccc(Cl)c4C(F)(F)F)ncc23)C[C@@H]1CC#N    121

----------
Target: KRAS G12C (GMPPNP-loaded) and cRAF (Ras-binding domain) interaction (Homo sapiens (Human), UniProt P01116, C118S/C51S/C80L/G12C)
Assay: Inhibition of KRAS G12C and cRAF binding (AlphaScreen)
Details: KRAS G12C loaded with GMPPNP, cRaf RBD, 2 hours preincubation; read-out: Raf-1 RBD K-Ras IC50
pIC50: −log10 of the molar value.
Measured pIC50 values are reported for all entries that follow.

In the examples that follow, each entry is paired with its recorded pIC50.
molecule	pIC50
CC(C)c1noc(/C=C/C(=O)N2CCN(c3nc(OCC45CCCN4CCC5)nc4c3CNC(c3cccc5cccc(Cl)c35)C4F)C[C@@H]2CC#N)n1 (stereo partly drawn)	7.00 to 8.00
C#Cc1c(F)ccc2cccc(-c3ncc4c(N5CCN(C(=O)/C=C/CN6[C@@H]7CC[C@H]6COC7)[C@@H](CC#N)C5)nc(OC[C@@]56CCCN5C[C@H](F)C6)nc4c3F)c12	> 8.00
Cc1nccc(/C=C/C(=O)N2CCN(c3nc(OCC45CCCN4CCC5)nc4c3CCN(c3cccc5ccc(F)c(Cl)c35)C4)C[C@@H]2CC#N)n1	6.30 to 7.00
N#CC[C@H]1CN(c2nc(OC[C@@]34CCCN3C[C@H](F)C4)nc3c(F)c(-c4cccc(Cl)c4C4CC4)ncc23)CCN1C(=O)/C=C/CN1CC2CCC(C1)O2	7.00 to 8.00
Cc1cc(/C=C/C(=O)N2CCN(c3nc(OC[C@@]45CCCN4C[C@H](F)C5)nc4c(F)c(-c5cccc6ccc(F)c(F)c56)ncc34)C[C@@H]2CC#N)nc(C)n1	7.00 to 8.00
C[C@@H](F)c1noc(/C=C/C(=O)N2CCN(c3nc(OC[C@@]45CCCN4C[C@H](F)C5)nc4c(F)c(-c5cccc6cccc(Cl)c56)ncc34)C[C@@H]2CC#N)n1	7.00 to 8.00

Lab book: pIC50 of Cc1nccc(/C=C/C(=O)N2CCN(c3nc(OC[C@@]45CCCN4C[C@H](F)C5)nc4c(F)c(-c5cccc6ccc(F)c(Cl)c56)ncc34)C[C@@H]2CC#N)n1 noted as > 8.00

pIC50 reported for this molecule N#CC[C@H]1CN(c2nc(OC[C@@]34CCCN3C[C@H](F)C4)nc3c(F)c(-c4cccc5ccc(F)c(F)c45)ncc23)CCN1C(=O)/C=C/CN1CCn2ccnc2C1 [Compound 263] : 7.00 to 8.00

# molecule Cc1cc(/C=C/C(=O)N2CCN(c3nc(OC[C@@]45CCCN4C[C@H](F)C5)nc4c(F)c(-c5cccc(Cl)c5C(F)(F)F)ncc34)C[C@@H]2CC#N)nc(C)n1 ; its pIC50 = 7.00 to 8.00

Entry Cc1nccc(/C=C/C(=O)N2CCN(c3nc(OC[C@@]45CCCN4C[C@H](F)C5)nc4c(F)c(-c5cccc6ccccc56)ncc34)C[C@@H]2CC#N)n1 [Compound 210] — recorded pIC50 = 6.30 to 7.00

Field pIC50 (entry C#Cc1c(F)ccc2cccc(-c3ncc4c(N5CCN(C(=O)/C=C/CN6CC7CCC(C6)O7)[C@@H](CC#N)C5)nc(OC[C@@]56CCCN5C[C@H](F)C6)nc4c3F)c12 ) reads > 8.00

----------
Target: KRAS G12C (GMPPNP-loaded) and cRAF (Ras-binding domain) interaction (Homo sapiens (Human), UniProt P01116, C118S/C51S/C80L/G12C)
Experiment: Inhibition of KRAS G12C and cRAF binding (AlphaScreen)
Conditions: KRAS G12C loaded with GMPPNP, cRaf RBD, 2 hours preincubation; read-out: Raf-1 RBD K-Ras IC50
pIC50: −log10 of the molar value.
# pIC50 values compiled below

Sample answers from the record:
compound	pIC50
C[C@@H]1CN(C/C=C/C(=O)N2CCN(c3nc(OC[C@@]45CCCN4C[C@H](F)C5)nc4c(F)c(-c5cccc6cccc(Cl)c56)ncc34)C[C@@H]2CC#N)C[C@@H](C)O1	> 8.00
CO[C@@H]1CCN(C/C=C/C(=O)N2CCN(c3nc(OCC45CCCN4CCC5)nc4c3CCN(c3cccc5cccc(Cl)c35)C4)C[C@@H]2CC#N)C1	> 8.00
C[C@@H]1CN(C/C=C/C(=O)N2CCN(c3nc(OC[C@@]45CCCN4C[C@H](F)C5)nc4c(F)c(-c5cccc6cccc(F)c56)ncc34)C[C@@H]2CC#N)C[C@H](C)O1	7.00 to 8.00
CCN1CC[C@@H]1/C=C/C(=O)N1CCN(c2nc(OC[C@@]34CCCN3C[C@H](F)C4)nc3c(F)c(-c4cccc(Cl)c4C4CC4)ncc23)C[C@@H]1CC#N	7.00 to 8.00
CN1CCC1/C=C/C(=O)N1CCN(c2nc(OC[C@@]34CCCN3C[C@H](F)C4)nc3c(F)c(-c4cccc5cccc(Cl)c45)ncc23)C[C@@H]1CC#N (some centres unmarked)	7.00 to 8.00
N#CC[C@H]1CN(c2nc(OC[C@@]34CCCN3C[C@H](F)C4)nc3c(F)c(-c4cccc5ccc(F)c(Cl)c45)ncc23)CCN1C(=O)/C=C/CN1CC2CCC(C1)O2	> 8.00
CC1(c2noc(/C=C/C(=O)N3CCN(c4nc(OCC56CCCN5CCC6)nc5c4CCN(c4cccc6cccc(Cl)c46)C5)C[C@@H]3CC#N)n2)CC1	7.00 to 8.00
Cc1cc(N)nc(C2Cc3nc(OC[C@@]45CCCN4C[C@H](F)C5)nc(N4CCN(C(=O)/C=C/C5CCN5C)[C@@H](CC#N)C4)c3CC2C)c1C(F)(F)F (mixture of isomers)	> 8.00
N#CC[C@H]1CN(c2nc(OC[C@@]34CCCN3C[C@H](F)C4)nc3c(F)c(-c4cccc5cccc(F)c45)ncc23)CCN1C(=O)/C=C/CN1CCSCC1	> 8.00
Cc1noc(/C=C/C(=O)N2CCN(c3nc(OC[C@@]45CCCN4C[C@H](F)C5)nc4c3CCN(c3cccc5ccc(F)c(Cl)c35)C4)C[C@@H]2CC#N)n1	7.00 to 8.00

We next turn to a different compound, shown below.
# pIC50 of N#CC[C@H]1CN(c2nc(OC[C@@]34CCCN3C[C@H](F)C4)nc3c(F)c(-c4cccc(Cl)c4C(F)(F)F)ncc23)CCN1C(=O)/C=C/CN1[C@@H]2CC[C@H]1COC2 = > 8.00

----------
Molecular target: KRAS G12C (GMPPNP-loaded) and cRAF (Ras-binding domain) interaction (Homo sapiens (Human), UniProt P01116, C118S/C51S/C80L/G12C)
Experiment: Inhibition of KRAS G12C and cRAF binding (AlphaScreen)
Conditions: KRAS G12C loaded with GMPPNP, cRaf RBD, 2 hours preincubation; read-out: Raf-1 RBD K-Ras IC50
Listed below: IC50 values for each entry.

smiles.string	IC50
C[C@@H]1CN(C/C=C/C(=O)N2CCN(c3nc(OC[C@@]45CCCN4C[C@H](F)C5)nc4c(F)c(-c5cccc6ccc(F)c(Cl)c56)ncc34)C[C@@H]2CC#N)C[C@@H](C)O1	< 10 nM

CCc1c(Cl)cccc1-c1ncc2c(N3CCN(C(=O)/C=C/CN4[C@@H]5CC[C@H]4COC5)[C@@H](CC#N)C3)nc(OC[C@@]34CCCN3C[C@H](F)C4)nc2c1F yielded IC50 of 10 to 100 nM

Record N#CC[C@H]1CN(c2nc(OC[C@@]34CCCN3C[C@H](F)C4)nc3c(F)c(-c4cccc5cccc(Cl)c45)ncc23)CCN1C(=O)/C=C/CN1C[C@H]2COC[C@H]21 , field IC50: 10 to 100 nM

N#CC[C@H]1CN(c2nc(OCC34CCCN3CCC4)nc3c2CCN(c2cccc4cccc(Cl)c24)C3)CCN1C(=O)/C=C/c1nc(C(F)F)no1 yielded IC50 of < 10 nM

Record N#CC[C@H]1CN(c2nc(OC[C@@]34CCCN3C[C@H](F)C4)nc3c(F)c(-c4cccc5cccc(Cl)c45)ncc23)CCN1C(=O)/C=C/c1nc(C2CC2)ncc1F . Reported IC50: 100 to 500 nM

Lookup result for Cc1nccc(/C=C/C(=O)N2CCN(c3nc(OC[C@@]45CCCN4C[C@H](F)C5)nc4c(F)c(-c5n[nH]c6cccc(Cl)c56)ncc34)C[C@@H]2CC#N)n1 ; measured IC50: > 500 nM

In plain terms, N#CC[C@H]1CN(c2nc(OCC34CCCN3CCC4)nc3c2CCN(c2cccc4cccc(Cl)c24)C3)CCN1C(=O)/C=C/CN1CCC(F)(F)C1 has a documented IC50 of 10 to 100 nM

Per the record, N#CC[C@H]1CN(c2nc(OC[C@@]34CCCN3C[C@H](F)C4)nc3c(F)c(-c4cccc(Cl)c4C4CC4)ncc23)CCN1C(=O)/C=C/CN1CC[C@H](F)C1 has IC50 of < 10 nM
